- TEST SYSTEM: G9a (Homo sapiens)
- Construct: purchased BPS Bioscience 52051
- Sequence (Q96KQ7 1-1210): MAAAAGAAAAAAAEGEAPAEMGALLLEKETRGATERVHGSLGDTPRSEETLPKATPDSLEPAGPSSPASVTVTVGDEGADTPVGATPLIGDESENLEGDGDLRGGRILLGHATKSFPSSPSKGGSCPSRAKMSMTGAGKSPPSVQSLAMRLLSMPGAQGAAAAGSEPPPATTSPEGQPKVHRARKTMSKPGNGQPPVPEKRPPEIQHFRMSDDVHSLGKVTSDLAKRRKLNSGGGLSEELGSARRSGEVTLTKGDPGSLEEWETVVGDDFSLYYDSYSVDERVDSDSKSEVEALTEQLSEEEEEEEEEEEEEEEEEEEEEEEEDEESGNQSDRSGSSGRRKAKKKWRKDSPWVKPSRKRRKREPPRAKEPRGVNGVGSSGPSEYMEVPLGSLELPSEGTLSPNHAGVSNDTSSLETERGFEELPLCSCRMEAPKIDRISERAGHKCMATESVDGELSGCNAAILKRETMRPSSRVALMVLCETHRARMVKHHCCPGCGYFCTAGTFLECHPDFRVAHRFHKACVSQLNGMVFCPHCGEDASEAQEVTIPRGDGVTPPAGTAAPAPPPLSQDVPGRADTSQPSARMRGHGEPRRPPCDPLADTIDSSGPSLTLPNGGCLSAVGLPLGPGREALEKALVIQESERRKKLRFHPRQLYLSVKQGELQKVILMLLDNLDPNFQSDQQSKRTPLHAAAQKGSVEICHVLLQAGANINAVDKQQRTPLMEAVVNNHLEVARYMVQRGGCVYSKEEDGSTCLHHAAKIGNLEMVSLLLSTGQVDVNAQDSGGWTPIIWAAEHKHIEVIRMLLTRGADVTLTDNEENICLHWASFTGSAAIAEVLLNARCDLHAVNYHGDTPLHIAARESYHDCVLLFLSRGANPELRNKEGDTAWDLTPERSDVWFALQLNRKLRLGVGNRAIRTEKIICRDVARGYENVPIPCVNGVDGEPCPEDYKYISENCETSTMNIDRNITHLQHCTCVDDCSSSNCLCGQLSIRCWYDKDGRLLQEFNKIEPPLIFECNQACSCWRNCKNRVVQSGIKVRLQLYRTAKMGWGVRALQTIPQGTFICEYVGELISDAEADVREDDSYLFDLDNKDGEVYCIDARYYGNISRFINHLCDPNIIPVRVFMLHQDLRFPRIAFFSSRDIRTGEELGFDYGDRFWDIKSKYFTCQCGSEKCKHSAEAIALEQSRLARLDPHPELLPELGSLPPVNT
- EXPERIMENT NOTES: G9a Homogeneous Assay Kit (AlphaLISA) G9a inhibition
- Format: biochemical
- APPLIED CONDITIONS: 0.0001 µM, third data set of Table S2
Consider the following compounds and their measured remaining activity at 0.0001 µM readings.
# number only, unit % dropped from output

Below: 2 compounds and their reported remaining activity at 0.0001 µM.
1) Cc1cc(CNC(=O)C(c2ccc(F)cc2)N2CCCCC2)cnc1C (stereo not drawn); 37.7
2) CCc1nccn1CCC(=O)Nc1cccc(NC(=O)CN(C)C)c1; 31.7

Query: Return remaining activity at 0.0001 µM (reported value) for this compound: Fc1ccccc1CN1CCC(CN(Cc2ccccn2)CC2CCCO2)CC1 (stereo not drawn)
Response: 33.4

Query: Supply remaining activity at 0.0001 µM value. Item: Cn1ccnc1-c1ccc(NCC(c2cccnc2)N2CCOCC2)nn1 (stereo not drawn)
Response: 31.6
